method.summary: S. cerevisiae RM11-1a growth modifiers, primary screen, strain RM11-1a, OD600, basal, 24 h (AID 1177);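 also: cultures grown under basal conditions with no added stressor; test concentration not given here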
condition: OD600, 24 h, higher = more signal, called active from +8 up or from −8 down
parameter: z-score
Reply: number alone, nothing else.

compound	z-score
COC(=O)[C@]1(Cc2ccccc2N=[N+]=[N-])N=C(c2ccc(OCCCO)cc2)O[C@@H]1c1ccccc1CN=[N+]=[N-]	1.94
COC(=O)[C@@]1(Cc2ccc(F)cc2)[C@H]2c3cc(C(=O)N(C)C)n(Cc4ccc(C(F)(F)F)nc4)c3C[C@H]2CN1C(=O)c1ccccc1	0.337
COCCOC(=O)N1C(=O)[C@@]2(c3cc(C#CC4(O)CCCCCC4)ccc31)[C@H](C(N)=O)[C@H]1C(=O)O[C@H](c3ccccc3)[C@H](c3ccccc3)N1[C@@H]2c1ccc(OCCO)cc1	2.58
COc1cccc(C)c1NC(=O)O[C@H]1[C@H](OC(=O)Nc2ccccc2)[C@@H](OC(=O)Nc2ccccc2)[C@@H](OC)O[C@@H]1CO	2.78
COC(=O)C(CC#Cc1ccc2c(c1)[C@]1(C(=O)N2)[C@H](C(=O)N2CCN(c3ncccn3)CC2)[C@H]2C(=O)O[C@H](c3ccccc3)[C@H](c3ccccc3)N2[C@@H]1c1ccc(O)cc1)C(=O)OC	1.25

According to the records, this compound O=C1O[C@H](c2ccccc2)[C@H](c2ccccc2)N2[C@H]1[C@@H](C(=O)Nc1nc3ccccc3s1)[C@]1(C(=O)Nc3ccccc31)[C@H]2c1ccccc1OCCO displays z-score of 2.72

According to the records, this compound COCCCNC(=O)[C@]1(Cc2ccccc2N=[N+]=[N-])N=C(c2ccc(OCCCO)cc2)O[C@@H]1c1ccccc1 displays z-score of -0.029

According to the records, this compound C=CC[C@]1(C(N)=O)N=C(c2ccc(OCCCO)cc2)O[C@H]1c1ccccc1N=[N+]=[N-] displays z-score of 1.32

According to the records, this compound COc1ccc([Si](C)(C)[C@H]2[C@H](CC(=O)N3CCC[C@H]3CO)O[C@@]3(C(=O)N(C)c4c(Br)cc(C)cc43)[C@@H]2C)cc1 displays z-score of 0.301

According to the records, this compound COC(=O)[C@@]1(Cc2ccc(F)cc2)[C@@H]2C(=CC(=O)[C@H]2CC(=O)C(=O)N2CCCC2)CN1C(=O)c1ccccc1 displays z-score of 0.381

According to the records, this compound COc1ccc([Si](C)(C)[C@H]2[C@H](CC(=O)N3CCC[C@H]3CO)O[C@@]3(C(=O)N(C)c4ccccc43)[C@@H]2C)cc1 displays z-score of 0.554

According to the records, this compound CCOC(=O)C[C@H]1[C@H](OC(=O)c2ccccc2-c2ccccc2)[C@@H](NC(=O)CC(C)C)c2cc(OCCCO)ccc2N1C(=O)c1ccccc1 displays z-score of -0.71

According to the records, this compound O=C1O[C@H](c2ccccc2)[C@H](c2ccccc2)N2[C@H]1[C@@H](C(=O)O)[C@]1(C(=O)Nc3ccc(C#CC4(O)CCCCCC4)cc31)[C@H]2c1ccccc1OCCO displays z-score of 3.22

According to the records, this compound CC(C)C[C@@H]1NC(=O)[C@H]2C[C@@H](C(=O)O)[C@@H](c3cccc(OCCO)c3)N2C1=O displays z-score of -0.79

According to the records, this compound COCCCNC(=O)[C@@]1(Cc2ccccc2I)c2ccccc2C(=O)N(Cc2ccccc2C(F)(F)F)[C@H]1c1ccc(CO)cc1 displays z-score of 1.38

According to the records, this compound C=CCC(OC(C)=O)[C@@H]1[C@@H](N(Cc2cccc3ccccc23)C(=O)c2ccc(C)cc2)c2cc(OCCCO)ccc2N1C(=O)Cc1ccc2ccccc2c1 (some centres not stated) displays z-score of -1.31

According to the records, this compound C=CCN1C(=O)[C@]2(O[C@H](CCO)[C@@H]([Si](C)(C)c3ccc(OC)cc3)[C@@H]2C)c2cc(N3C(=O)c4ccccc4Oc4ccccc43)ccc21 displays z-score of 4.06
